system_under_test: human sst2 receptor (Homo sapiens, UniProt P30874)
Sequence (P30874 whole entry): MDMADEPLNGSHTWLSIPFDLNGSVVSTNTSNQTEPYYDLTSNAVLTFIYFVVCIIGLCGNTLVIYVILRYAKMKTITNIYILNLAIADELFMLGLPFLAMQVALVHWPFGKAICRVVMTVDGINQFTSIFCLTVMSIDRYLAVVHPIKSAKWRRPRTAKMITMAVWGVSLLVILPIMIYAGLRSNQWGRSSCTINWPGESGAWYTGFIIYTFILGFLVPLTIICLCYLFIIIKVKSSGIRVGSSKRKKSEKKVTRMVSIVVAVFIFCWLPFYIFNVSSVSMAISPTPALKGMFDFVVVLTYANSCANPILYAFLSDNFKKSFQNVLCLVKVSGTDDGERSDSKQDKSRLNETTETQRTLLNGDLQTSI
test_method_notes: cAMP functional assay in CHO-K1 cells stably expressing human sst2 receptor
Format: cell-based
condition_notes: human sst2, CHO-K1 cells, cAMP; average of two or more independent measurements
Reported sst2 pEC50±SEM by item:
Simply state the number, no unit and no words.

[
  {
    "compound": "Cc1cc(C)cc(N2C=Nc3cc(C)c(-c4cccc(O)c4)cc3C2C(=O)N(C)C[C@@H]2CCCN2)c1 (some centres unmarked)",
    "sst2 pEC50±SEM": 8.9
  },
  {
    "compound": "Cc1cc(Cl)cc(N2C=Nc3cc(C)c(-c4cccc(C(F)(F)F)c4)cc3C2C(=O)N(C)C[C@@H]2CCCN2)c1 (some centres unmarked)",
    "sst2 pEC50±SEM": 7.3
  },
  {
    "compound": "Cc1cc(Cl)cc(N2C=Nc3cc(C)c(-c4cnn(C)c4)cc3C2C(=O)N(C)C[C@@H]2CCCN2)c1 (some centres unmarked)",
    "sst2 pEC50±SEM": 6.8
  },
  {
    "compound": "COc1cc(F)cc(-c2cc3c(cc2C)N=CN(c2cc(C)cc(Cl)c2)C3C(=O)N(C)C[C@@H]2CCCN2)c1 (some centres unmarked)",
    "sst2 pEC50±SEM": 8.2
  },
  {
    "compound": "Cc1cc(Cl)cc(N2C=Nc3cc(C)c(-c4cccc(O)c4)cc3C2C(=O)N(C)C[C@@H]2CCCN2)c1 (some centres unmarked)",
    "sst2 pEC50±SEM": 9.5
  }
]

**Q:** Give the measured sst2 pEC50±SEM of Cc1cc(Cl)cc(N2C=Nc3cc(C)c(-c4ccc5[nH]c(=O)[nH]c5c4)cc3C2C(=O)N(C)C[C@@H]2CCCN2)c1 (some centres unmarked) .
**A:** 8.3

**Q:** What about this compound? Cc1cc(Cl)cc(N2C=Nc3cc(C)c(-c4cccc(Cl)c4)cc3C2C(=O)N(C)C[C@@H]2CCCN2)c1 (some centres unmarked)
**A:** 7.4

**Q:** What about this compound? Cc1cc(Cl)cc(N2C=Nc3cc(C)c(-c4cccc(NS(C)(=O)=O)c4)cc3C2C(=O)N(C)C[C@@H]2CCCN2)c1 (some centres unmarked)
**A:** 6.9

**Q:** What about this compound? Cc1cc(Cl)cc(N2C=Nc3cc(C)c(-c4cc(F)ccc4O)cc3C2C(=O)N(C)C[C@@H]2CCCN2)c1 (some centres unmarked)
**A:** 8.7

**Q:** What about this compound? CC[C@H](N)CN(C)C(=O)C1c2cc(-c3cccc(O)c3)c(C)cc2N=CN1c1cc(C)cc(C)c1 (some centres unmarked)
**A:** 8.4

**Q:** What about this compound? Cc1cc(Cl)cc(N2C=Nc3cc(C)c(-c4cncc(O)c4)cc3C2C(=O)N(C)C[C@@H]2CCCN2)c1 (some centres unmarked)
**A:** 8.1
